Assay: Cytotoxicity against HEK293 cells assessed as viable cells at 50 ug/ml incubated for 24 hrs by CCK-8 assay relative to control
Type: toxicity, cell-based
Conditions: human, at 50 µg/mL, read-out: Activity

>  <input smiles>
COC(=O)[C@H](CCCNC(=N)N)NC(=O)[C@H](CCCNC(=N)N)NC(=O)COc1ccc(S(=O)(=O)c2ccc(OC/C=C(/C)CCC=C(C)C)cc2)cc1

>  <viability at 24 h, 50 ug/ml [%]>
91.5

$$$$

* * *

Assay: Hemolytic activity against rabbit RBC incubated for 1 hr by multimode plate reader
Format: toxicity, cell-based, Oryctolagus cuniculus, Erythrocyte
Settings: rabbit red blood cells (erythrocytes)
assay readout: HC50 at 1 h

>  <input smiles>
C=CCCCCCOc1ccc(S(=O)(=O)c2ccc(OCCCCNC(=N)N)cc2)cc1

>  <reading>
> 200 µg/mL

$$$$
>  <input smiles>
COC(=O)[C@H](CCCNC(=N)N)NC(=O)COc1ccc(S(=O)(=O)c2ccc(OC(C)C)cc2)cc1

>  <reading>
> 200 µg/mL

$$$$
>  <input smiles>
O=S(=O)(c1ccc(O)cc1)c1ccc(O)cc1

>  <reading>
> 200 µg/mL

$$$$
>  <input smiles>
COC(=O)[C@H](CCCNC(=N)N)NC(=O)[C@H](CCCNC(=N)N)NC(=O)[C@H](CCCNC(=N)N)NC(=O)COc1ccc(S(=O)(=O)c2ccc(OCC=C(C)C)cc2)cc1

>  <reading>
> 200 µg/mL

$$$$
